Parameter: pIC50. Scope: all listed entries.
Tested on: Trypanosoma cruzi
protocol: Trypanocidal activity against Trypanosoma cruzi TINF/CH/1956/Tulahuen DTU 6 amastigotes infected in African green monkey Vero cells after 72 hrs by Giemsa-staining based microscopic assay
Format: functional, organism-based
setup-conditions: TINF/CH/1956/Tulahuen DTU 6, Vero
# pIC50 is unitless: minus log10 of the molar concentration; print number only

Task item: # get_value(readout='pIC50', item= CCCCCCNc1c(N(C)CCCN(C)C)c(=O)c1=O )
Reply: 4.42

Task item: # get_value(readout='pIC50', item= CCCCCCCCCCCCCCCCNc1c(N(C)CCCN(C)C)c(=O)c1=O )
Reply: 5.19

Task item: # get_value(readout='pIC50', item= CCCCCCCCCCCCCCCCOP(=O)([O-])OCC[N+](C)(C)C [MILTEFOSINE] )
Reply: 4.50

Task item: # get_value(readout='pIC50', item= CCCCCCCCCCCCOc1c(N(C)CCCN(C)C)c(=O)c1=O )
Reply: 4.59

Task item: # get_value(readout='pIC50', item= CCCCNc1c(N(C)CCCN(C)C)c(=O)c1=O )
Reply: 4.93

New cases:
Task item: # get_value(readout='pIC50', item= CCNc1c(N(C)CCCN(C)C)c(=O)c1=O )
Reply: 4.50

Task item: # get_value(readout='pIC50', item= CN(C)CCCN(C)c1c(N)c(=O)c1=O )
Reply: 4.29
